- MEASUREMENT_TARGET: Recombinant Human MMP-13 (Homo sapiens, UniProt P45452)
- ASSAY_SUMMARY: MMP-13 inhibition, MMP-13 specific fluorescent substrate with quencher
- ASSAY_CONDITIONS: synthetic substrate 7-MCA-Pro-CHA-Gly-NVal-His-Ala-DPA, 25° C. for 1 h; read-out: Experimental Example 3 IC50 MMP13
I'd be grateful if you could share measured IC50 for these entries.

1) CN1CCN(C(=O)OCCN([C@]2(C(=O)O)C[C@H]2c2ccccc2)S(=O)(=O)c2ccc(-c3ccc(Cl)cc3)s2)CC1 [Example 2-15]	≥ 1000 nM
2) O=C(O)CN([C@]1(C(=O)O)C[C@H]1c1ccccc1)S(=O)(=O)c1ccc(-c2ccc(Cl)cc2)s1 [Example 2-08]	≥ 10000 nM

API: the following record is the query input.
Exercise: IC50 for CN1CCN(C(=O)OCCCN([C@]2(C(=O)O)C[C@H]2c2ccccc2)S(=O)(=O)c2ccc(-c3ccc(Cl)cc3)s2)CC1 [Example 2-21] ?
Key: ≥ 1000 nM
